- System: porcine pancreatin
- test-details: Peptide stability in simulated intestinal fluid (SIF)
- Format: in vitro ADME
- reported-conditions: after 8 h vs 0 h (TIC); average of R1-R3
measured-endpoint: SIF stability, Residual peptide Average
The answer should be written as a number, with no unit following it.

Illustrative cases are given below, each with its answer.
Tested on porcine pancreatin: C[C@@H]1NC(=O)[C@@H](NC(=O)c2ccc(Cl)s2)CSCc2cccc(n2)CSCCNC(=O)c2ccc(cc2)CNC1=O [compound 26] . Observed SIF stability, Residual peptide Average: 88.29

Tested on porcine pancreatin: O=C1C[C@H]2CCCN2C(=O)[C@H](Cc2ccccc2)NC(=O)[C@@H](NC(=O)c2ccc(Cl)s2)CCSCc2cccc(n2)CSCCN1 [compound 33] . Observed SIF stability, Residual peptide Average: 68.57

Tested on porcine pancreatin: C[C@@H]1NC(=O)[C@@H](NC(=O)c2ccc(Cl)s2)CNC(=O)CCSCc2cccc(n2)CSCCNC1=O [compound 18] . Observed SIF stability, Residual peptide Average: 98.53

Consider the record given below.
Tested on porcine pancreatin: O=C(N[C@H]1CSCCS(=O)(=O)CCSCCNC(=O)C2(CC2)CNC(=O)[C@H](Cc2ccccc2)NC1=O)c1ccc(Cl)s1 [compound 16] . Observed SIF stability, Residual peptide Average: 6.32

====

- test-details: Metabolic stability in rat liver microsomes (RLMs)
- reported-conditions: rat, CL (ul/min/mg protein), R2, RLM CL, replicate R2, unrounded
Catalogue of microsomal CLint values
The reply should contain only the number, in µL/min/mg.

# microsomal CLint of O=C1C[C@H]2CCCN2C(=O)[C@H](Cc2ccccc2)NC(=O)[C@@H](NC(=O)c2ccc(Cl)s2)CSC/C=C/CSCCN1 [peptide 32] = 276

# microsomal CLint of O=C1C[C@H]2CCCN2C(=O)[C@H](Cc2ccccc2)NC(=O)[C@@H](NC(=O)c2ccc(Cl)s2)CCCSCc2cccc(n2)CSCCN1 = 90.4

# microsomal CLint of O=C1C[C@H]2CCCN2C(=O)[C@H](Cc2ccccc2)NC(=O)[C@@H](NC(=O)c2ccc(Cl)s2)CSCc2cccc(n2)CSCCN1 = 48.6

More entries:
# microsomal CLint of O=C1C[C@H]2CCCN2C(=O)[C@H](Cc2ccccc2)NC(=O)[C@@H](NC(=O)c2ccc(Cl)s2)CCSC/C=C/CSCCN1 = 85.6

# microsomal CLint of O=C1C[C@H]2CCCN2C(=O)[C@H](Cc2ccccc2)NC(=O)[C@@H](NC(=O)c2ccc(Cl)s2)CCSCc2cccc(n2)CSCCN1 = 71

====

- test-details: in vivo
- reported-conditions: male, Wistar Han, rat, iv, 1 mg/kg, Concentration in blood samples
measured-endpoint: level at time molar at 0.25 h (nM)
The reply should contain only the number, in nM.

# level at time molar at 0.25 h of O=C1C[C@H]2CCCN2C(=O)[C@H](Cc2ccccc2)NC(=O)[C@@H](NC(=O)c2ccc(Cl)cc2)CCC=CCCCCN1 (mixture of isomers) [peptide 46] = 590

====

- test-details: in vivo
- reported-conditions: male, Wistar Han, rat, po, 10 mg/kg, Concentration in blood samples
measured-endpoint: level at time molar at 1 h

# level at time molar at 1 h of O=C1C[C@H]2CCCN2C(=O)[C@H](Cc2ccccc2)NC(=O)[C@@H](NC(=O)c2ccc(Cl)cc2)CCC=CCCCCN1 (mixture of isomers) [peptide 46] = 240 nM
